- System: NCI-H226
- Test Method Notes: NCI tumour cell line growth inhibition, 48 h
Activity calls are given as the source filed them. Cut-off read from the data, not from the text of the source: active = GI50 up to about 1.1 µM and inactive = higher.
Permitted responses: 1 (active), 0 (inactive)

The following compounds have reported results that may help.
compound="CC(C)C(=O)CC(c1ccc(Cl)cc1)N1N=C(C(C)C)CC1c1ccc(Cl)cc1 (stereo unspecified)" qualitative_label=0
compound="O=C(NC1C=Nc2ccccc2NC1=O)c1ccccc1Cl (stereo unspecified)" qualitative_label=0
compound=CCOC(=O)C1=C(Nc2ccc(Br)cc2)OC/C1=N\NC(=O)c1ccccc1O qualitative_label=0
compound=CCC(=O)N/N=C(\C=C\c1cccc(O)c1)c1sc(Nc2ccc(C)cc2[N+](=O)[O-])nc1C qualitative_label=0

**Q:** Outcome? O=C(NCC(=O)N1CCCC1C(=O)OC(=O)C1CCCN1C(=O)CNC(=O)OCc1ccccc1)OCc1ccccc1 (stereo unspecified)
**A:** 0

**Q:** Same lookup for "Nc1ncnc2c1ncn2C=C=CCO" , please.
**A:** 0

---

- Tested on: 786-0
- Test Method Notes: NCI tumour cell line growth inhibition, 48 h
Active and inactive are the calls of the source. Cut-off read from the data, not from the text of the source: active = GI50 up to about 1.1 µM and inactive = higher.
Measured Parameter: GI50

Solved entries (count: 3):
compound=C=C[C@@]1(C)CC(=O)[C@]2(O)[C@@]3(C)[C@@H](OC(C)=O)CCC(C)(C)[C@@H]3[C@H](OC(C)=O)[C@H](OC(C)=O)[C@@]2(C)O1 measured_parameter=GI50 recorded_value="> 100 µM (inactive)"
compound=O=[N+]([O-])c1ccc(SN=S=NSc2cccc(SN=S=NSc3ccc([N+](=O)[O-])cc3)c2)cc1 measured_parameter=GI50 recorded_value="13.8 µM (inactive)"
compound="O=C1OCC(O)=C1C(c1ccc(Cl)cc1)c1cc2c(cc1O)OCO2 (centres undefined)" measured_parameter=GI50 recorded_value="> 100 µM (inactive)"

Moving on to the next compound.
**Q:** What value of GI50 has been recorded for this entry: CCOC(=O)C(CC(C)C)NC(=O)CSc1nnc(COc2ccc(Cl)cc2)n1-c1ccccc1 (centres undefined)
**A:** 15.3 µM (inactive)

---

- System: SK-MEL-2
- Test Method Notes: NCI tumour cell line growth inhibition, 48 h
Calls of active or inactive are those of the source. No stated cut-off is given here; in the data, active = GI50 up to about 1.1 µM and inactive = higher.
Permitted responses: Yes = active, No = inactive

The following molecules have reported results that may help.
molecule=COc1ccc2nc(N/N=C/c3sccc3C)cc(C)c2c1 qualitative_label=No
molecule=CSC(=N)NNC(=O)CCC(=O)Nc1ccccc1C(F)(F)F qualitative_label=No

**Q:** Outcome? COc1cc(C2S/C(=C/c3ccccc3)C(=O)N2c2ccc(Cl)cc2)cc(OC)c1OC (configuration not stated)
**A:** No

**Q:** Same lookup for "COc1ccc(N[C@H](CSc2ccc(C)cc2)c2ccc(F)cc2)cc1" , please.
**A:** No

**Q:** Same lookup for "COc1cc(/C=N\O[Si](C)(C)C(C)(C)C)ccc1O[Si](C)(C)C(C)(C)C" , please.
**A:** No

**Q:** Same lookup for O=C(O)c1cc(Cl)cc2c1NC1(N2)C(=O)Nc2ccccc21 (configuration not stated) , please.
**A:** No

**Q:** Same lookup for CCOc1ccc(NC(=O)CC2SC(Nc3ccc(C)cc3C)=NC2=O)cc1 (configuration not stated) , please.
**A:** No

---

- Tested on: HL-60
- Test Method Notes: NCI tumour cell line growth inhibition, 48 h
Calls of active or inactive are those of the source. Rule as the data show it: active = GI50 up to about 1.1 µM and inactive = higher.
Permitted responses: 1.0 (active), 0.0 (inactive)

The following compounds have reported results that may help.
compound=O=C(CC(=O)Nc1ccc(Cl)cc1)NNCC(=O)Nc1nc(-c2ccccc2)cs1 tested_target=HL-60 qualitative_label=0.0
compound=CCOC(=O)NC(=O)c1cn(CCOC(=O)CCCCCCCCC(=O)OCCn2cc(C(=O)NC(=O)OCC)c(=O)[nH]c2=O)c(=O)[nH]c1=O tested_target=HL-60 qualitative_label=0.0

**Q:** Outcome? O=C(O)C1(CC(CCCN2CCCCC2)c2ccccc2)CCCC1 (centres undefined)
**A:** 0.0

**Q:** Same lookup for "C/C(=N/NC(=S)N(Cc1ccccn1)Cc1ccccn1)c1cnccn1" , please.
**A:** 1.0

---

- Test system: SK-MEL-28
- Test Method Notes: NCI tumour cell line growth inhibition, 48 h
Calls of active or inactive are those of the source. Cut-off read from the data, not from the text of the source: active = GI50 up to about 1.1 µM and inactive = higher.
Listing of entries alongside the reported GI50.

Solved entries (count: 3):
compound=CC[C@H](C)C1=C(O)[N@+]2([O-])Oc3ccc(-c4c(O)c(O)c(-c5ccc(O)cc5)c(OC(C)=O)c4OC(C)=O)cc3O[C@]2([C@@H](C)CC)C(=O)N1O measured_parameter=GI50 recorded_value="46.8 µM (inactive)"
compound="CCC(=O)C(c1ccccc1)c1ccccn1 (stereo not given)" measured_parameter=GI50 recorded_value="> 100 µM (inactive)"
compound=Oc1cc(-c2ccccc2)c2ccccc2n1 measured_parameter=GI50 recorded_value="37.3 µM (inactive)"

**Q:** What value of GI50 has been recorded for this entry: "C#CCn1c(=O)c(C#N)c(O)c2cc3ccccc3nc21"
**A:** > 100 µM (inactive)

**Q:** Same lookup for "Nc1c2c(nc3ccccc13)-c1ccccc1CC2" , please.
**A:** 10.4 µM (inactive)

---

- Tested on: UACC-62
- Test Method Notes: NCI tumour cell line growth inhibition, 48 h
Activity calls are given as the source filed them. Rule as the data show it: active = GI50 up to about 1.1 µM and inactive = higher.
Permitted responses: true (1) (active), false (0) (inactive)

The following molecules have reported results that may help.
line_notation=CO[C@H]1C[C@H](O[C@H]2CC[C@]3(C=O)[C@H]4CC[C@]5(C)[C@@H](C6=CC(=O)OC6)CC[C@]5(O)[C@@H]4CC[C@]3(O)C2)O[C@H](C)[C@H]1O[C@@H]1O[C@H](CO[C@@H]2O[C@H](CO)[C@@H](O)[C@H](O)[C@H]2O)[C@@H](O)[C@H](O)[C@H]1O qualitative_label="true (1)"
line_notation=C[C@@H](Cl)[C@H]1CCCN(Cc2ccc(Br)cc2)C1 qualitative_label="false (0)"

Let's switch to this molecule now.
**Q:** Outcome? "CC1(C)Cc2c(c3ccccc3c3nc4c(nc23)c2c(c3ccccc34)OC(C)(C)C2)O1"
**A:** false (0)

---

- Test system: UO-31
- Test Method Notes: NCI tumour cell line growth inhibition, 48 h
Calls of active or inactive are those of the source. Rule as the data show it: active = GI50 up to about 1.1 µM and inactive = higher.
Measured Parameter: GI50

compound=CN(C)[C@@H]1C(O)=C(C(=O)NCNCCCC(=O)O)C(=O)[C@@]2(O)C(O)=C3C(=O)c4c(O)cccc4[C@@](C)(O)[C@H]3C[C@@H]12 measured_parameter=GI50 recorded_value="> 100 µM (inactive)"
compound=CC(C)(C)C1(COC(=O)c2ccc(N)cc2)COC1 measured_parameter=GI50 recorded_value="56 µM (inactive)"
compound=NC(=S)N/C=C1\C(=O)Oc2ccccc2C1=O measured_parameter=GI50 recorded_value="27.5 µM (inactive)"
compound=Cc1ccc(C)n2c1nc1ccc3ccccc3c12 measured_parameter=GI50 recorded_value="61 µM (inactive)"
compound="N#CC(NNC(=O)Cc1ccccc1)c1ccc(O)cc1 (configuration not stated)" measured_parameter=GI50 recorded_value="> 100 µM (inactive)"
compound=COc1ccccc1/N=N/C(C(=O)c1ccccc1)C(=O)c1ccccc1 measured_parameter=GI50 recorded_value="12.8 µM (inactive)"
compound=N#CC(C#N)=C(N)/C(C#N)=C/c1ccc2[nH]ccc2c1 measured_parameter=GI50 recorded_value="14 µM (inactive)"
compound=CC[C@H](C)C1=C(O)[N@+]2([O-])Oc3ccc(-c4c(O)c(O)c(-c5ccc(O)cc5)c(OC(C)=O)c4OC(C)=O)cc3O[C@]2([C@@H](C)CC)C(=O)N1O measured_parameter=GI50 recorded_value="33.8 µM (inactive)"
compound=CCOc1ccc(N/C(=C(/C(Cl)=C(/Cl)NCCO)[N+](=O)[O-])n2nnc3ccccc32)cc1 measured_parameter=GI50 recorded_value="19.5 µM (inactive)"
compound="CCOC(=O)c1cc2c3c(c(C(C)=O)c(O)c2[nH]1)N(CC(C)CC)CC3 (configuration not stated)" measured_parameter=GI50 recorded_value="83.4 µM (inactive)"

**Q:** What value of GI50 has been recorded for this entry: "CCN(CC)CCn1nc(N)c2nc3ccccc3nc21"
**A:** > 100 µM (inactive)

**Q:** Same lookup for "CN1CCC/C1=C1\C(=O)c2cccn2C1=O" , please.
**A:** > 100 µM (inactive)

**Q:** Same lookup for CCOC(=O)C(Cc1c[nH]c2cc([N+](=O)[O-])ccc12)NS(=O)(=O)c1ccc2ccccc2c1 (configuration not stated) , please.
**A:** 22.8 µM (inactive)

---

Listing of entries alongside the reported GI50.
- Test system: KM12
- Test Method Notes: NCI tumour cell line growth inhibition, 48 h
Active and inactive are the calls of the source. Cut-off read from the data, not from the text of the source: active = GI50 up to about 1.1 µM and inactive = higher.

Solved entries (count: 5):
line_notation=CC(C)[C@H](NC(=O)[C@@H](O)[C@H](N)Cc1ccccc1)C(=O)N[C@@H](Cc1ccccc1)C(=O)O tested_target=KM12 measured_parameter=GI50 recorded_value="> 100 µM (inactive)"
line_notation=COCCN(CCOC)C(=O)COc1c2cc(C(C)(C)C)cc1Cc1cc(C(C)(C)C)cc(c1OCC(=O)N(CCOC)CCOC)Cc1cc(C(C)(C)C)cc(c1OCC(=O)N(CCOC)CCOC)Cc1cc(C(C)(C)C)cc(c1OCC(=O)N(CCOC)CCOC)Cc1cc(C(C)(C)C)cc(c1OCC(=O)N(CCOC)CCOC)C2 tested_target=KM12 measured_parameter=GI50 recorded_value="0.518 µM (active)"
line_notation=Cc1cc2nc3[nH]nc(N)c3nc2cc1C tested_target=KM12 measured_parameter=GI50 recorded_value="> 100 µM (inactive)"
line_notation=Cc1cc(C)n(-c2ccnc3cc(Cl)ccc23)n1 tested_target=KM12 measured_parameter=GI50 recorded_value="> 100 µM (inactive)"
line_notation=Cn1cc(NC(=O)c2cc(NC(=O)CCCCCCCCC(=O)Nc3cc(C(=O)Nc4cc(C(=O)NCCC(N)N)n(C)c4)n(C)c3)cn2C)cc1C(=O)NCCC(=N)N tested_target=KM12 measured_parameter=GI50 recorded_value="18.5 µM (inactive)"

**Q:** What value of GI50 has been recorded for this entry: "CN(C)[C@@H]1C(O)=C(C(=O)NCNCCCC(=O)O)C(=O)[C@@]2(O)C(O)=C3C(=O)c4c(O)cccc4[C@@](C)(O)[C@H]3C[C@@H]12"
**A:** > 100 µM (inactive)

**Q:** Same lookup for "C1CCCCC2(CCCCCCCCC3(CCC1)SCCS3)SCCS2" , please.
**A:** > 100 µM (inactive)

**Q:** Same lookup for "CCSc1n/c(=C\c2ccco2)c2nncn12" , please.
**A:** > 100 µM (inactive)
